target: EZH2PRC2 mutant Y641N (Homo sapiens, UniProt Q15910, Y641N); test: EZH2PRC2 mutant Y641N nucleosome assay; conditions: read-out: EZH2PCR2 Mutant Y641N IC50
Sequence (Q15910 whole entry Y641N): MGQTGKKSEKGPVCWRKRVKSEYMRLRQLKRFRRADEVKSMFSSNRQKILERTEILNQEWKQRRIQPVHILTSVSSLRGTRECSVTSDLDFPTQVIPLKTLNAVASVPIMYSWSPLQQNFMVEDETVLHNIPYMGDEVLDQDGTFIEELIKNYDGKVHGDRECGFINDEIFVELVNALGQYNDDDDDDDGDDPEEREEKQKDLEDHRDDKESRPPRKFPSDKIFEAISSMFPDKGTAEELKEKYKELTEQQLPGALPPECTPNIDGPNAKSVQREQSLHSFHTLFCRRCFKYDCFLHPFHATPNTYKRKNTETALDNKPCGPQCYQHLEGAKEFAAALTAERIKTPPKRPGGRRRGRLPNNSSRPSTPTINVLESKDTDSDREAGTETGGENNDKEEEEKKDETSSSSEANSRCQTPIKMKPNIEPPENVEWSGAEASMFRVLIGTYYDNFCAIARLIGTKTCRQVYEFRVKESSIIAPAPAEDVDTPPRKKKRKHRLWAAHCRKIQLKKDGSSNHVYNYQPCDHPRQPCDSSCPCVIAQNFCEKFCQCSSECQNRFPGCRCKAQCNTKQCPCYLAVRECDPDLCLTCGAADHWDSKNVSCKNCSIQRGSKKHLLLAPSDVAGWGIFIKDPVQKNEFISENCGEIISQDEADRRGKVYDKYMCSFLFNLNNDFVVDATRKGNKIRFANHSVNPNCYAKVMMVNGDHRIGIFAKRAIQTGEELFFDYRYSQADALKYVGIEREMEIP
Sequence (O75530 whole entry partner): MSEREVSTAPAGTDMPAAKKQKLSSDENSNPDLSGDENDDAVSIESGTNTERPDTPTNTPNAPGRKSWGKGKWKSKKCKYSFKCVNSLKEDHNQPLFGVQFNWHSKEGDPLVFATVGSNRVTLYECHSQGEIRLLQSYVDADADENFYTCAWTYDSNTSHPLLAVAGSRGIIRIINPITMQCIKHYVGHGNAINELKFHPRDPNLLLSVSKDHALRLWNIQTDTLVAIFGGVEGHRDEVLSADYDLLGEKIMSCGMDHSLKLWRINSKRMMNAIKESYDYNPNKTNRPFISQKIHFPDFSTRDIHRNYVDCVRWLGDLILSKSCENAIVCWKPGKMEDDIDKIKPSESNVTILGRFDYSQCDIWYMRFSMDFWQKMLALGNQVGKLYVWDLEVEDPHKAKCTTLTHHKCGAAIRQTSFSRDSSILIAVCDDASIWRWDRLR
Sequence (Q15022 whole entry partner): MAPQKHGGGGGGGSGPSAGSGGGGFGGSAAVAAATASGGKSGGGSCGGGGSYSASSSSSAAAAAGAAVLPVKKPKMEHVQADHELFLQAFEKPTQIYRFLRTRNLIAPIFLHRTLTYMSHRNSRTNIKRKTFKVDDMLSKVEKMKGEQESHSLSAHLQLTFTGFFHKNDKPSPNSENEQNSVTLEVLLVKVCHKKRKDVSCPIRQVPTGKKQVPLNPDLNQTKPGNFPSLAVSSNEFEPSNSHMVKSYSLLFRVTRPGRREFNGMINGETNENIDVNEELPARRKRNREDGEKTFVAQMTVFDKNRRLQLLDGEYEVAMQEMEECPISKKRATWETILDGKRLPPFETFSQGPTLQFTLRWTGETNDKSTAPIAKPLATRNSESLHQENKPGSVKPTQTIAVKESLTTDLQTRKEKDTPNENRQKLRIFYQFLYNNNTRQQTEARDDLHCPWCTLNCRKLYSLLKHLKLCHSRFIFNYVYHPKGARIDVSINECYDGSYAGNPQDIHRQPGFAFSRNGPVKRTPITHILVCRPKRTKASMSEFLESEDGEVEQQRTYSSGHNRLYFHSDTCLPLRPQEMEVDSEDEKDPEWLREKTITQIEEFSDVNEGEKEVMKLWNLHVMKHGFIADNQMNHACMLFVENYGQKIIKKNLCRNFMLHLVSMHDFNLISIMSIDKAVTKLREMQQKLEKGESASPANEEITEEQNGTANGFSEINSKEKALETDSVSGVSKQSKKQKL
Sequence (Q09028 whole entry partner): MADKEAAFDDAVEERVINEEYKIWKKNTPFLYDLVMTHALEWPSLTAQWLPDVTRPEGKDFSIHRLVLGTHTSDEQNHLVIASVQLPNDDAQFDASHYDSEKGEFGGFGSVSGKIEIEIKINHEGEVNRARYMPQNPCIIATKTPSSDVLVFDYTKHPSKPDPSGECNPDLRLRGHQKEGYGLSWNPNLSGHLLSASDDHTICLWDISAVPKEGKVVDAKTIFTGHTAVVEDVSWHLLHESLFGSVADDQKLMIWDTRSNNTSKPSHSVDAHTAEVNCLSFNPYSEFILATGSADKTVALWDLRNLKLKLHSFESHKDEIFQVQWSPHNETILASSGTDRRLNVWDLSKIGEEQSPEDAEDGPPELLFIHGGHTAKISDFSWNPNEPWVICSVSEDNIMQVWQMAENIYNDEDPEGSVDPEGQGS
OUTCOME_MEASURE: IC50 (nM)

1. Cc1cc(C)c(CNC(=O)c2cc(-c3cnc(N4CC(F)C4)nc3)cc(-c3c(C)cnn3C)c2C)c(=O)[nH]1 550
2. Cc1cc(C)c(CNC(=O)c2cc(-c3cnc(N4C[C@@H]5C[C@H]4CO5)nc3)cc(-c3c(C)cnn3C)c2C)c(=O)[nH]1 750
